These measurements were taken from patent US9382254B2.

# System name: CFTR ΔF508 mutant (Homo sapiens, UniProt P13569, DEL508-508)
# Construct: expressed in transfected cells; host or cells: CFBE41o- (adenoviral transduction)
# Sequence (P13569 with tags, fused parts or gaps DEL508-508): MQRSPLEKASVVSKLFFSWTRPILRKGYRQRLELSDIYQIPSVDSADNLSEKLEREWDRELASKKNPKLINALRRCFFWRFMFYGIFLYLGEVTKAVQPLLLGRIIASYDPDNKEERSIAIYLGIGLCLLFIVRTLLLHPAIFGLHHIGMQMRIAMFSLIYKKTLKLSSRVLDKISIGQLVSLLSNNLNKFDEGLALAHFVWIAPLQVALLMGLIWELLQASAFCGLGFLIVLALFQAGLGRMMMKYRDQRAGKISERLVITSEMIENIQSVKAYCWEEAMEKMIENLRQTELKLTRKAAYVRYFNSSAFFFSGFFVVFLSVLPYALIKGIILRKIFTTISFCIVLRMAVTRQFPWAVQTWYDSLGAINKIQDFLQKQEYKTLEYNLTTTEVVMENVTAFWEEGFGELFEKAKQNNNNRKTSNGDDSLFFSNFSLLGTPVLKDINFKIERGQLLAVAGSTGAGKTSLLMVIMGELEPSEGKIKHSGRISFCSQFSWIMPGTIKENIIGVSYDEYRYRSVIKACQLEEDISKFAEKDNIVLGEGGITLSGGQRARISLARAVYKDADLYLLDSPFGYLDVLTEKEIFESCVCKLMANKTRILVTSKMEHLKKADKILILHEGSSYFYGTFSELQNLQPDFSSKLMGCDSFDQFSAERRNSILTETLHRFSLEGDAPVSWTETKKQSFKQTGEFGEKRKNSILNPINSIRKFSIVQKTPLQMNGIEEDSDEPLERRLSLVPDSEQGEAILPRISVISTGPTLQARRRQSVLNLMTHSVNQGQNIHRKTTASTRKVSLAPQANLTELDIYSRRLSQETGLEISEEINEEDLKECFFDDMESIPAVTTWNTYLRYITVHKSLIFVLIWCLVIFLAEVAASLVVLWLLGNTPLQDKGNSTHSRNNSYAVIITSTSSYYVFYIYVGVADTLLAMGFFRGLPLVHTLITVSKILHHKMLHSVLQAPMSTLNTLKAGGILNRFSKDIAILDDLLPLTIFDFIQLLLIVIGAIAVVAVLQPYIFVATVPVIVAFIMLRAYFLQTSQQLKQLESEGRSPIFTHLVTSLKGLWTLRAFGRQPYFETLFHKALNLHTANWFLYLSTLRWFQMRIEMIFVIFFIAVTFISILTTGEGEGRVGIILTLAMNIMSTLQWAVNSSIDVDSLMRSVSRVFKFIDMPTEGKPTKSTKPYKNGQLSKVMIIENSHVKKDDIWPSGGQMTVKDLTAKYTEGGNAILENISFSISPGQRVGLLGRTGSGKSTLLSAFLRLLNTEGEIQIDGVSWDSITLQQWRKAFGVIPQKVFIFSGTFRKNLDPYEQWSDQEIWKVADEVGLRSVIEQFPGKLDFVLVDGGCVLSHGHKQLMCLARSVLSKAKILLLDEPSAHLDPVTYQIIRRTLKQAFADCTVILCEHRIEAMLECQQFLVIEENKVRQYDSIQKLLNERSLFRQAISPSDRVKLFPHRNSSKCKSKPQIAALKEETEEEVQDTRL
# Assay method text: YFP-halide influx assay for the CFTR-ΔF508 mutation, gluconate buffer
# Assay type: cell-based
# Assay context: CFBE41o- cells, forskolin 10.67 μM
Entries annotated with measured EC50

Compound	EC50
CC(C)S(=O)(=O)c1cc(C(N)=O)c(NC(=O)C(C)(C)O)s1 [Compound 220]	> 1000 nM
COc1cc(F)ccc1C(=O)Nc1sc(S(=O)(=O)N2CCOCC2)cc1C(N)=O [Compound 168]	1660 nM
NC(=O)c1cc(S(=O)(=O)C2CCOCC2)sc1NC(=O)c1ccccc1F [Compound 165]	> 1000 nM

----------
# System name: CFTR ΔF508 mutant (Homo sapiens, UniProt P13569, DEL508-508)
# Construct: expressed in transfected cells; host or cells: CFBE41o- (adenoviral transduction)
# Assay method text: YFP-halide influx assay for the CFTR-ΔF508 mutation (384 well, FDSS/μCell)
# Format: cell-based
# Assay context: CFBE41o- cells, CFTR-ΔF508, 1×D-PBS, fluorescence after 36 seconds
pEC50: −log10 of the molar value.
Entries annotated with measured pEC50

Molecule	System name	pEC50
CCN(CC)S(=O)(=O)c1cc(C(N)=O)c(NC(=O)c2ccc(C)s2)s1	CFTR ΔF508 mutant (Homo sapiens, UniProt P13569, DEL508-508)	6.87
COc1cc(S(=O)(=O)c2cc(C(N)=O)c(NC(=O)C(C)(C)O)s2)c(OC(F)F)cc1F	CFTR ΔF508 mutant (Homo sapiens, UniProt P13569, DEL508-508)	7.59
COc1ccc(S(=O)(=O)c2cc(C(N)=O)c(NC(=O)C(C)(C)O)s2)cc1	CFTR ΔF508 mutant (Homo sapiens, UniProt P13569, DEL508-508)	7.25
CC(C)(O)C(=O)Nc1sc(S(=O)(=O)c2ccccc2Cl)cc1C(N)=O	CFTR ΔF508 mutant (Homo sapiens, UniProt P13569, DEL508-508)	7.56
CN(Cc1ccc(F)cc1)S(=O)(=O)c1cc(C(N)=O)c(NC(=O)c2cc[nH]n2)s1	CFTR ΔF508 mutant (Homo sapiens, UniProt P13569, DEL508-508)	7.15
CC(O)C(=O)Nc1sc(S(=O)(=O)c2cc(F)ccc2C(F)(F)F)cc1C(N)=O (stereo not drawn)	CFTR ΔF508 mutant (Homo sapiens, UniProt P13569, DEL508-508)	8.24
CC(C)(O)C(=O)Nc1sc(S(=O)(=O)c2cc(Cl)cnc2C(F)(F)F)cc1C(N)=O	CFTR ΔF508 mutant (Homo sapiens, UniProt P13569, DEL508-508)	7.89
CC(C)c1ccccc1S(=O)(=O)c1cc(C(N)=O)c(NC(=O)C(C)(C)O)s1	CFTR ΔF508 mutant (Homo sapiens, UniProt P13569, DEL508-508)	8.12
Cc1ccc(CN(C)S(=O)(=O)c2cc(C(N)=O)c(NC(=O)c3cc[nH]n3)s2)cc1	CFTR ΔF508 mutant (Homo sapiens, UniProt P13569, DEL508-508)	6.73
NC(=O)c1cc(S(=O)(=O)c2ccccc2OC(F)(F)F)sc1NC(=O)C1(CO)CC1	CFTR ΔF508 mutant (Homo sapiens, UniProt P13569, DEL508-508)	7.89
CC(O)C(=O)Nc1sc(S(=O)(=O)c2ccc(OC(F)(F)F)cc2Cl)cc1C(N)=O (stereo not drawn)	CFTR ΔF508 mutant (Homo sapiens, UniProt P13569, DEL508-508)	7.59
CC(CO)C(=O)Nc1sc(S(=O)(=O)c2ccc(F)cc2Cl)cc1C(N)=O (stereo not drawn)	CFTR ΔF508 mutant (Homo sapiens, UniProt P13569, DEL508-508)	8.02

----------
Entries annotated with measured EC50
# System name: CFTR ΔF508 mutant (Homo sapiens, UniProt P13569, DEL508-508)
# Construct: expressed in transfected cells; host or cells: CFBE41o- (adenoviral transduction)
# Assay method text: YFP-halide influx assay for the CFTR-ΔF508 mutation, gluconate buffer
# Assay type: cell-based
# Assay context: CFBE41o- cells, forskolin 10.67 μM

Molecule	System name	Scale unit	EC50
COCCN(CC(F)(F)F)S(=O)(=O)c1cc(C(N)=O)c(NC(=O)c2ccccc2F)s1 [Compound 157]	CFTR ΔF508 mutant (Homo sapiens, UniProt P13569, DEL508-508)	nM	86.5
CC1(C)CN(S(=O)(=O)c2cc(C(N)=O)c(NC(=O)c3cc[nH]n3)s2)C1 [Compound 206]	CFTR ΔF508 mutant (Homo sapiens, UniProt P13569, DEL508-508)	nM	72.6
NC(=O)c1cc(S(=O)(=O)c2ccc(F)cc2)sc1NC(=O)c1ccccc1F [Compound 111]	CFTR ΔF508 mutant (Homo sapiens, UniProt P13569, DEL508-508)	nM	84.3
CC1(C)CN(S(=O)(=O)c2cc(C(N)=O)c(NC(=O)c3ccccc3F)s2)C1 [Compound 183]	CFTR ΔF508 mutant (Homo sapiens, UniProt P13569, DEL508-508)	nM	153
Cc1ccc(C(=O)Nc2sc(S(=O)(=O)c3ccccc3)cc2C(N)=O)s1 [Compound 16]	CFTR ΔF508 mutant (Homo sapiens, UniProt P13569, DEL508-508)	nM	99.7

----------
# System name: CFTR-R117H (Homo sapiens, UniProt P13569, R117H)
# Sequence (P13569 whole entry R117H): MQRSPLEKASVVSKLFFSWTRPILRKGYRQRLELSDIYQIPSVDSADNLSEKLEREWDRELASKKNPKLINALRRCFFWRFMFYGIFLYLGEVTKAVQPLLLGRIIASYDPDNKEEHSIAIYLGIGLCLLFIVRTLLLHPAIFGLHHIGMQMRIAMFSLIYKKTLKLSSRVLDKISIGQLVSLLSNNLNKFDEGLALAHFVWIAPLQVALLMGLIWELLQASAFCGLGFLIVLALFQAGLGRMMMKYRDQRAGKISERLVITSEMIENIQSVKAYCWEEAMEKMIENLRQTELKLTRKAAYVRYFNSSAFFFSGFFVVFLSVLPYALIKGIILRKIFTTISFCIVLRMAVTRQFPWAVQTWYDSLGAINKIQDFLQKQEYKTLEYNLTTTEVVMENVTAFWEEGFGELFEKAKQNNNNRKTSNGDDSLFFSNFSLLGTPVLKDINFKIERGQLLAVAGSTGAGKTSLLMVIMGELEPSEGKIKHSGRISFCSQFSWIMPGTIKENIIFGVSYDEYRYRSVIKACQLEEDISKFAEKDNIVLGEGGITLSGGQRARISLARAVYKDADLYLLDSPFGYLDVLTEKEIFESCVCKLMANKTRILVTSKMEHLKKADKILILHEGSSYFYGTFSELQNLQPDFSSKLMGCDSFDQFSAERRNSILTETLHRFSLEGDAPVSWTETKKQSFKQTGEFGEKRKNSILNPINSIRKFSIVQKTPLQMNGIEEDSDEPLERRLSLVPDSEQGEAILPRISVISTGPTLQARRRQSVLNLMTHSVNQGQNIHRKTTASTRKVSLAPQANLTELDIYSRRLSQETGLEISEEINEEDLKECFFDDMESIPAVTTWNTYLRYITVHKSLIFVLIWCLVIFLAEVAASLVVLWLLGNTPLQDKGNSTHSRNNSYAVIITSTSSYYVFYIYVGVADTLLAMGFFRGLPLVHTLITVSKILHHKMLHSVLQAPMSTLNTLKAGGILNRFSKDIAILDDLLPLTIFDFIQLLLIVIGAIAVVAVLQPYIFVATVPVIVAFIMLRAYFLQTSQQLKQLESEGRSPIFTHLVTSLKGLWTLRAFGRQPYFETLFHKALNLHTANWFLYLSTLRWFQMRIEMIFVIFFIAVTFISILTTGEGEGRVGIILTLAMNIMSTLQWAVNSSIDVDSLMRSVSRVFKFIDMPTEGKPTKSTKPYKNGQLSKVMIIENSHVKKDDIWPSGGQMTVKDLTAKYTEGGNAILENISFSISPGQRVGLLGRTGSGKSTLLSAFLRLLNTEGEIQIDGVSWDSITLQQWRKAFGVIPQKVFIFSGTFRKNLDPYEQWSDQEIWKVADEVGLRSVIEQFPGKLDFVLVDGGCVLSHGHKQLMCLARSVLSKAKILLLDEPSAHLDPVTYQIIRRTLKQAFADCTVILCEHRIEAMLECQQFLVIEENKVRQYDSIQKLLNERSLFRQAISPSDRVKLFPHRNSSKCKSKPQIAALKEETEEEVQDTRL
# Assay method text: YFP-halide influx assay for the CFTR-R117H
pEC50: −log10 of the molar value.
Experimental endpoint: pEC50

Compound	Experimental endpoint	Numeric readout
CC(O)C(=O)Nc1sc(S(=O)(=O)c2cc(F)ccc2CC(F)(F)F)cc1C(N)=O (stereo not shown) [Compound 334]	pEC50	6.93
CC(C)(O)C(=O)Nc1sc(S(=O)(=O)c2nc(C(C)(C)C)ccc2C(F)(F)F)cc1C(N)=O [Compound 426]	pEC50	7.08
COc1ccc(C(F)(F)F)c(S(=O)(=O)c2cc(C(N)=O)c(NC(=O)C(C)(C)O)s2)n1 [Compound 420]	pEC50	7.01
CC(C)(O)C(=O)Nc1sc(S(=O)(=O)c2c(Cl)cccc2Cl)cc1C(N)=O [Compound 298]	pEC50	7.01
CC(C)(O)C(=O)Nc1sc(S(=O)(=O)c2ccc(F)cc2Cl)cc1C(N)=O [Compound 286]	pEC50	6.79
CC(C)(O)C(=O)Nc1sc(S(=O)(=O)c2nc(Cl)ccc2C(F)(F)F)cc1C(N)=O [Compound 424]	pEC50	7.01
C[C@H](O)C(=O)Nc1sc(S(=O)(=O)c2ccc(OC(F)(F)F)cc2)cc1C(N)=O [Compound 331]	pEC50	7.02
NC(=O)c1cc(S(=O)(=O)c2ccc(F)cc2)sc1NC(=O)C1(CO)CC1 [Compound 254]	pEC50	6.89
CC(C)(O)C(=O)Nc1sc(S(=O)(=O)c2ccsc2C(F)(F)F)cc1C(N)=O [Compound 425]	pEC50	6.84
C[C@@H](CO)C(=O)Nc1sc(S(=O)(=O)c2ccc(OC(F)(F)F)cc2)cc1C(N)=O [Compound 379]	pEC50	7.01

----------
# System name: CFTR-R117H (Homo sapiens, UniProt P13569, R117H)
# Assay method text: YFP-halide influx assay for the CFTR-R117H
pEC50: −log10 of the molar value.
Note to self: values exactly at 7 are met. So pEC50 at or above 7 is met, below is not met.

Compound	Label class
CC(C)(O)C(=O)Nc1sc(S(=O)(=O)c2ccc(C(F)(F)F)c(Cl)n2)cc1C(N)=O	not met
CC(C)(O)C(=O)Nc1sc(S(=O)(=O)c2ncccc2C(F)(F)F)cc1C(N)=O	not met
CC(C)(O)C(=O)Nc1sc(S(=O)(=O)c2cnc(C(F)(F)F)cn2)cc1C(N)=O	not met
CC(C)(O)C(=O)Nc1sc(S(=O)(=O)c2cc(F)ccc2Br)cc1C(N)=O	not met
CC(O)C(=O)Nc1sc(S(=O)(=O)c2ccc(F)cc2Cl)cc1C(N)=O (stereo not drawn)	not met
CC(CO)C(=O)Nc1sc(S(=O)(=O)c2ccc(Cl)cc2OC(F)(F)F)cc1C(N)=O (stereo not drawn)	met
CC(C)(O)C(=O)Nc1sc(S(=O)(=O)c2cc(Cl)ccc2OC(F)(F)F)cc1C(N)=O	met
COc1cc(C)cc(S(=O)(=O)c2cc(C(N)=O)c(NC(=O)C(C)(C)O)s2)c1	not met

----------
# System name: CFTR ΔF508 mutant (Homo sapiens, UniProt P13569, DEL508-508)
# Construct: expressed in transfected cells; host or cells: CFBE41o- (adenoviral transduction)
# Assay method text: YFP-halide influx assay for the CFTR-ΔF508 mutation (384 well, FDSS/μCell)
# Assay type: cell-based
# Assay context: CFBE41o- cells, CFTR-ΔF508, 1×D-PBS, fluorescence after 36 seconds
pEC50: −log10 of the molar value.
Experimental endpoint: pEC50

Compound	Numeric readout
CN(C1CC1)S(=O)(=O)c1cc(C(N)=O)c(NC(=O)c2ccccc2F)s1 [Compound 152]	6.87
CCc1cc(C(=O)Nc2sc(S(=O)(=O)c3cccc(F)c3)cc2C(N)=O)n[nH]1 [Compound 114]	6.99
COCCN(C1CC1)S(=O)(=O)c1cc(C(N)=O)c(NC(=O)c2ccccc2C(F)(F)F)s1 [Compound 261]	7.03
NC(=O)c1cc(S(=O)(=O)c2ccc(OC(F)(F)F)cc2)sc1NC(=O)C1(CO)CCC1 [Compound 364]	7.52
COc1ccc(OC)c(S(=O)(=O)c2cc(C(N)=O)c(NC(=O)C3(O)CC3)s2)c1 [Compound 246]	7.12
CC(C)(CO)C(=O)Nc1sc(S(=O)(=O)c2ccc(OC(F)(F)F)cc2)cc1C(N)=O [Compound 446]	7.38
CC(C)(O)C(=O)Nc1sc(S(=O)(=O)c2cccc(C(F)(F)F)c2)cc1C(N)=O [Compound 408]	7.96
CC(C)C(O)C(=O)Nc1sc(S(=O)(=O)c2ccc(F)cc2)cc1C(N)=O (single isomer, unassigned; enantiomer 1) [Compound 352]	7.91
CC(C)(O)C(=O)Nc1sc(S(=O)(=O)c2cccc(C(F)(F)F)n2)cc1C(N)=O [Compound 427]	7.38
COc1cc(C#N)cc(S(=O)(=O)c2cc(C(N)=O)c(NC(=O)C(C)(C)O)s2)c1OC(F)F [Compound 419]	7.58
